Here the recorded inhibition of growth at 10 µM is given for each entry.
- System: SK-MEL-2
- protocol-summary: Anticancer activity against human SK-MEL-2 cells assessed as cell growth inhibition at 10 uM incubated for 48 hrs by SRB assay relative to control
- Format: functional
- study-conditions: read-out: GI
Lab book: enter the figure in %, no units written.

COc1ccc(/C=N/Nc2nc(Nc3ccccc3)nc(Nc3ccc(S(N)(=O)=O)cc3)n2)cc1    31
NS(=O)(=O)c1ccc(Nc2nc(N/N=C/c3c[nH]c4ccccc34)nc(Nc3ccccc3)n2)cc1    32

## Input Answer with reported inhibition of growth at 10 µM of "NS(=O)(=O)c1ccc(Nc2nc(N/N=C/c3ccc4c(c3)OCO4)nc(Nc3ccccc3)n2)cc1"
## Output 44

## Input Answer with reported inhibition of growth at 10 µM of "Cc1ccc(/C=N/Nc2nc(Nc3ccccc3)nc(Nc3ccc(S(N)(=O)=O)cc3)n2)cc1"
## Output 22

## Input Answer with reported inhibition of growth at 10 µM of "NS(=O)(=O)c1ccc(Nc2nc(N/N=C/c3ccccn3)nc(Nc3ccccc3)n2)cc1"
## Output 182

## Input Answer with reported inhibition of growth at 10 µM of "NS(=O)(=O)c1ccc(Nc2nc(N/N=C/c3cccc4ccccc34)nc(Nc3ccccc3)n2)cc1"
## Output 17

## Input Answer with reported inhibition of growth at 10 µM of "CN(C)c1ccc(/C=N/Nc2nc(Nc3ccccc3)nc(Nc3ccc(S(N)(=O)=O)cc3)n2)cc1"
## Output 18

## Input Answer with reported inhibition of growth at 10 µM of "NS(=O)(=O)c1ccc(Nc2nc(N/N=C/c3ccc(F)cc3)nc(Nc3ccccc3)n2)cc1"
## Output 109

---

- Tested on: CAKI-1
- protocol-summary: Anticancer activity against human CAKI-1 cells assessed as cell growth inhibition at 10 uM incubated for 48 hrs by SRB assay relative to control
- Format: functional
- study-conditions: read-out: GI
measured-attribute: inhibition of growth at 10 µM (%)
Lab book: enter the figure in %, no units written.

NS(=O)(=O)c1ccc(Nc2nc(N/N=C/C=C/c3ccccc3)nc(Nc3ccccc3)n2)cc1    53
NS(=O)(=O)c1ccc(Nc2nc(N/N=C/c3c[nH]c4ccccc34)nc(Nc3ccccc3)n2)cc1    46

## Input Answer with reported inhibition of growth at 10 µM of "NS(=O)(=O)c1ccc(Nc2nc(N/N=C/c3cccs3)nc(Nc3ccccc3)n2)cc1"
## Output 44

## Input Answer with reported inhibition of growth at 10 µM of "NS(=O)(=O)c1ccc(Nc2nc(N/N=C/c3ccc(F)cc3)nc(Nc3ccccc3)n2)cc1"
## Output 43

---

- Tested on: MCF7
- protocol-summary: Anticancer activity against human MCF7 cells assessed as cell growth inhibition at 10 uM incubated for 48 hrs by SRB assay relative to control
- Type: functional
- study-conditions: read-out: GI
measured-attribute: inhibition of growth at 10 µM

NS(=O)(=O)c1ccc(Nc2nc(N/N=C/c3ccccn3)nc(Nc3ccccc3)n2)cc1    98%

## Input Answer with reported inhibition of growth at 10 µM of "NS(=O)(=O)c1ccc(Nc2nc(N/N=C/c3ccc(F)cc3)nc(Nc3ccccc3)n2)cc1"
## Output 71%

## Input Answer with reported inhibition of growth at 10 µM of "COc1ccc(/C=N/Nc2nc(Nc3ccccc3)nc(Nc3ccc(S(N)(=O)=O)cc3)n2)cc1"
## Output 59%

## Input Answer with reported inhibition of growth at 10 µM of "NNc1nc(Nc2ccccc2)nc(Nc2ccc(S(N)(=O)=O)cc2)n1"
## Output < 10%

## Input Answer with reported inhibition of growth at 10 µM of "NS(=O)(=O)c1ccc(Nc2nc(N/N=C/c3cccs3)nc(Nc3ccccc3)n2)cc1"
## Output 47%

## Input Answer with reported inhibition of growth at 10 µM of "NS(=O)(=O)c1ccc(Nc2nc(N/N=C/c3ccc(Cl)cc3)nc(Nc3ccccc3)n2)cc1"
## Output 61%
